Provide the reported chromatographic logP of each item.
# protocolNotes: Measurement of LogP values by HPLC on reversed phase columns (EEC directive 79/831 Annex V.A8), methods [a], [b], [c]
# Type: physicochemical
# testContext: HPLC on reversed phase column, method [a]; read-out: Log P
Number only, please.

Data request: Please give measured chromatographic logP of the following entry: C=C(OCC)c1cc(C2=NOCC(Cc3ccc(C)cc3C)N2)c(Oc2cccc(C(F)(F)F)c2)nn1 (racemic)
Data returned: 4.98

Data request: Please give measured chromatographic logP of the following entry: CC(=O)c1cc(C2=NOCC(Cc3ccc(C)cc3C)N2)c(Oc2cccc(C(F)(F)F)c2)nn1 (racemic)
Data returned: 4.27

Data request: Please give measured chromatographic logP of the following entry: Cc1cc(C2=NOCCC(c3ccc4c(ccn4C)c3)N2)c(Oc2cccc(C(F)(F)F)c2)nn1 (racemic)
Data returned: 1.92

Data request: Please give measured chromatographic logP of the following entry: Cc1ccc(CC2CNN=C(c3cc(Cl)nnc3Oc3cccc(C(F)(F)F)c3)N2)c(C)c1 (racemic)
Data returned: 3.31

Data request: Please give measured chromatographic logP of the following entry: Cc1ccc(OCC2CON=C(c3cc(C)nnc3Oc3cccc(C(F)(F)F)c3)N2)c(C)c1 (racemic)
Data returned: 3.98

Data request: Please give measured chromatographic logP of the following entry: Cc1cc(C2=NOCC(c3ccc(Cl)cc3)N2)c(Oc2cccc(C(F)(F)F)c2)nn1 (racemic)
Data returned: 3.29

Data request: Please give measured chromatographic logP of the following entry: Cc1ccc(CC2CC(=O)N=C(c3cc(Cl)nnc3Oc3cccc(C4CC4)c3)N2)c(C)c1 (racemic)
Data returned: 4.31

Data request: Please give measured chromatographic logP of the following entry: FC(F)(F)c1cccc(Oc2nnc(Cl)cc2C2=NOCC(Cc3ccc(Br)cc3Cl)N2)c1 (racemic)
Data returned: 4.61

Data request: Please give measured chromatographic logP of the following entry: Cc1ccc(CC2CON=C(c3c(Oc4cccc(C(F)(F)F)c4)nnc(Cl)c3NC3CC3)N2)c(C)c1 (racemic)
Data returned: 4.03

Data request: Please give measured chromatographic logP of the following entry: COCCSc1nnc(Oc2cccc(C(F)(F)F)c2)c(C2=NOCC(Cc3ccc(C)cc3C)N2)c1C (racemic)
Data returned: 4.51

Data request: Please give measured chromatographic logP of the following entry: Cc1ccc(CC2CON=C(c3c(Oc4cccc(C(F)(F)F)c4)nnc(Cl)c3-c3ccncc3)N2)c(C)c1 (racemic)
Data returned: 3.76

Data request: Please give measured chromatographic logP of the following entry: Cc1ccc(CC2CCN=C(c3cc(Cl)nnc3Oc3cccc(C(F)(F)F)c3)N2)c(C)c1 (racemic)
Data returned: 2.56

Data request: Please give measured chromatographic logP of the following entry: Cc1ccc(CC2CON=C(c3c(Oc4cccc(C5CC5)c4F)nnc(Cl)c3C)N2)c(C)c1 (racemic)
Data returned: 4.3

Data request: Please give measured chromatographic logP of the following entry: COCCOc1c(Cl)nnc(Oc2cccc(C(F)(F)F)c2)c1C1=NOCC(Cc2ccc(C)cc2C)N1 (racemic)
Data returned: 4.18

Data request: Please give measured chromatographic logP of the following entry: COc1ccc(C2NC(c3cc(C)nnc3Oc3cccc(C(F)(F)F)c3)=NOC2(F)F)cc1 (racemic)
Data returned: 3.6

----------
# protocolNotes: Measurement of LogP values by HPLC on reversed phase columns (EEC directive 79/831 Annex V.A8), methods [a], [b], [c]
# Format: physicochemical
# testContext: method [a]: LC-UV, acidic range, 0.1% formic acid in water and acetonitrile; Table 15, compounds of formula (9)
measuredQuantity: chromatographic logP

Data request: Please give measured chromatographic logP of the following entry: `N#Cc1cc(Cl)nnc1Oc1cccc(C(F)(F)F)c1`
Data returned: 3.25

Data request: Please give measured chromatographic logP of the following entry: `Cc1cc(C#N)c(Oc2cccc(C(F)(F)F)c2)nn1`
Data returned: 2.84
